# System: Fibrinogen (Alexa647-labelled)
# RUN DESCRIPTION: Alexa647-fibrinogen binding to printed small molecules – biochemical, small-molecule microarray, 635/667 nm fluorescence, artefact control for SMM control-protein annotation, profiling panel (AID 1131);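 also: z-score merges 667 nm fluorescence with per-spot signal-to-noise over triplicate slides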
# RECORDED CONDITIONS: fibrinogen-A647 binding fluorescence, higher = more signal
For each entry below, report its composite z-score value.
Respond using a number only.

Task: Lab note: need composite z-score with Fibrinogen (Alexa647-labelled) for entry NCCCCCCNC(=O)[C@@H]1C[C@@H]2C(=O)N3CCC[C@H]3C(=O)N2[C@@H]1c1cccc(OCCO)c1 , please look it up.
Result: 0.882

Task: Lab note: need composite z-score with Fibrinogen (Alexa647-labelled) for entry CN(C)CCCC[C@@H]1NC(=O)[C@H]2C[C@@H](C(=O)O)[C@@H](c3ccc(O)cc3)N2C1=O , please look it up.
Result: 1.04

Task: Lab note: need composite z-score with Fibrinogen (Alexa647-labelled) for entry C=CCN1Cc2ccccc2[C@H]2OC(c3ccc(OCCCO)cc3)=N[C@@]2(CCS(=O)(=O)c2ccccc2)C1=O , please look it up.
Result: 0.0869

Task: Lab note: need composite z-score with Fibrinogen (Alexa647-labelled) for entry COc1ccc([Si](C)(C)[C@H]2[C@H](CCO)O[C@@]3(C(=O)N(Cc4cccc(N(C=O)c5ccccc5)c4)c4ccccc43)[C@@H]2C)cc1 , please look it up.
Result: 0.777

----------
For each entry below, report its z-score value.
# RUN DESCRIPTION: JC-1 mitochondrial signal, unstimulated MM1S myeloma – cell-based, JC-1 fluorescence, 24 h, 100 nL compound, profiling panel (AID 1170); also: test concentration not given here
# RECORDED CONDITIONS: MM1S mitochondrial potential, higher = more signal
Respond using a number only.

Task: Any idea what z-score was measured for CC1CC/C=C\[C@H]2OC34C=CCN(Cn5nnc6ccccc65)C(=O)[C@H]3N(CCCCCCO)C(=O)[C@@H]4C2C(=O)O1 (stereo not given in full) ?
Result: -0.657

Task: Any idea what z-score was measured for CCCCC(O)C1C=CC2C(=O)N(c3ccccc3)C(=O)C2N1Nc1ccc(C#N)cc1 (stereo not given) ?
Result: -0.0525

Task: Any idea what z-score was measured for C=CCN1Cc2ccccc2[C@H]2OC(c3ccc(OCCCO)cc3)=N[C@@]2(CCS(=O)(=O)c2ccccc2)C1=O ?
Result: -0.0644

Task: Any idea what z-score was measured for COc1ccc([Si](C)(C)[C@H]2[C@H](CCO)O[C@@]3(C(=O)N(Cc4cccc(N5C(=O)c6ccccc6Oc6ccccc65)c4)c4ccccc43)[C@@H]2C)cc1 ?
Result: -1.84

Task: Any idea what z-score was measured for NC(=O)N1C(=O)C2C(C1=O)C1C=C(CCCO)C2C(c2ccc(CN3CCCC3)cc2)N1Cc1sc2ccccc2c1Cl (stereo not given) ?
Result: 0.423

Task: Any idea what z-score was measured for CCCNC(=O)[C@@]1(Sc2ccc(C)cc2)CC(=O)N(Cc2ccccc2Cl)[C@@H]1c1ccc(CO)cc1I ?
Result: -1.87

Task: Any idea what z-score was measured for COC(=O)C(CC#Cc1ccc2c(c1)[C@]1(C(=O)N2)[C@H](c2ccccc2OCCO)N2[C@H](c3ccccc3)[C@H](c3ccccc3)OC(=O)[C@H]2[C@@H]1C(=O)N1CCc2cc(OC)c(OC)cc2C1)C(=O)OC ?
Result: -1.47

Task: Any idea what z-score was measured for C=CC[C@@]1(C(=O)N(C)C)N=C(c2ccc(OCCCO)cc2)O[C@@H]1c1ccccc1CN=[N+]=[N-] ?
Result: -0.479

Task: Any idea what z-score was measured for COC(=O)[C@]1(CCC(=O)OC(C)(C)C)N=C(c2ccc(OCCCO)cc2)O[C@@H]1c1ccccc1N=[N+]=[N-] ?
Result: -1.57

Task: Any idea what z-score was measured for CCCc1cc2c(n1CCc1ccc(Cl)cc1)C(C)C1CN(C(=O)c3ccccc3)C(C)(C(=O)OC)C21 (stereo not given) ?
Result: -1.19

Task: Any idea what z-score was measured for COc1ccc([Si](C)(C)[C@H]2[C@H](CCO)O[C@@]3(C(=O)N(Cc4cccc(N(C=O)c5ccccc5)c4)c4ccccc43)[C@@H]2C)cc1 ?
Result: -1.85

Task: Any idea what z-score was measured for COc1ccc([Si](C)(C)[C@@H]2[C@@H](CC(=O)N3Cc4ccccc4C[C@H]3CO)O[C@]3(C(=O)N(Cc4ccc(N5CCOC5=O)cc4)c4ccccc43)[C@H]2C)cc1 ?
Result: 0.359

Task: Any idea what z-score was measured for C=CC[C@@]12N=C(c3ccc(OCCCO)cc3)O[C@@H]1c1ccccc1N(CCC)C2=O ?
Result: -0.994

Task: Any idea what z-score was measured for CN1C(=O)C2C(C1=O)C1C=C(CCCO)C2C(C2CC2)N1Cc1cccc(OC(F)(F)F)c1 (stereo not given) ?
Result: 0.389

Task: Any idea what z-score was measured for C=C(CCCC)/C(=C/C[C@H](OC(=O)c1ccncc1)c1ccc(OCCO)cc1)c1cnc2ccccc2c1 ?
Result: -0.262

----------
# TESTED TARGET: Fibroblast growth factor 10 (Homo sapiens)
# RUN DESCRIPTION: compounds binding fibroblast growth factor 10 – biochemical, small-molecule microarray, 635 nm fluorescence, primary screen (AID 1102)
# RECORDED CONDITIONS: FGF10 binding, fluorescence 635 nm, higher = more signal
Hi, to clarify the labels: true covers composite z-score from 0.5 upward, false covers anything below 0.5.

Task: Decide: is the reported value of composite z-score for C=C(/C(=C/C[C@@H](OC(C)=O)c1cccc(OCCO)c1)c1cnc2ccccc2c1)C(C)C equal to or greater than 0.5?
Result: true

Task: Decide: is the reported value of composite z-score for C=CCN1C(=O)[C@]2(O[C@H](CCn3cc([C@H](O)c4ccccc4)nn3)[C@@H]([Si](C)(C)c3ccc(OC)cc3)[C@@H]2C)c2cc(NC(=O)c3ccc(OC)cc3)ccc21 equal to or greater than 0.5?
Result: false

Task: Decide: is the reported value of composite z-score for COC(=O)C(CC#Cc1ccc2c(c1)[C@]1(C(=O)N2)[C@H](c2ccccc2OCCO)N2[C@H](c3ccccc3)[C@H](c3ccccc3)OC(=O)[C@H]2[C@@H]1C(=O)N1CCc2cc(OC)c(OC)cc2C1)C(=O)OC equal to or greater than 0.5?
Result: true

Task: Decide: is the reported value of composite z-score for C=CCNC(=O)[C@H]1[C@@H]2C(=O)O[C@@H](c3ccccc3)[C@@H](c3ccccc3)N2[C@@H](c2ccc(OCCO)cc2)[C@]12C(=O)Nc1ccc(C#CC3(O)CCCCCC3)cc12 equal to or greater than 0.5?
Result: true

Task: Decide: is the reported value of composite z-score for [N-]=[N+]=Nc1ccccc1C[C@@]1(C(=O)NCc2ccccc2)N=C(c2ccc(OCCCO)cc2)O[C@@H]1c1ccccc1N=[N+]=[N-] equal to or greater than 0.5?
Result: true

----------
# RUN DESCRIPTION: viability profiling in RPMI8226 myeloma cells – cell-based, resazurin fluorescence, basal, 24 h, PK04 Diversity Set, profiling panel (AID 1180);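 also: RPMI8826 multiple myeloma cell line at 5000 cells per well; test concentration not given here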
# RECORDED CONDITIONS: higher = more signal
REPORTED ENDPOINT: z-score
Respond using a number only.

Task: Any idea what z-score was measured for CCCC[C@H]1C[C@@H]1[C@@H]1N(C(C)=O)[C@H](c2cccc(OC)c2)CC12CC2 ?
Result: 1.43

Task: Any idea what z-score was measured for O=C1O[C@@H](c2ccccc2)[C@@H](c2ccccc2)N2[C@@H](c3ccc(OCCO)cc3)[C@]3(C(=O)Nc4ccc(C#CC5(O)CCCCCC5)cc43)[C@@H](C(=O)Nc3nc4ccccc4s3)[C@H]12 ?
Result: 0.519

Task: Any idea what z-score was measured for Cc1ccc(S[C@]2(C(=O)NCCCN(C)C)CC(=O)N(Cc3ccccc3C(F)(F)F)[C@@H]2c2ccc(CO)cc2I)cc1 ?
Result: -1.42

Task: Any idea what z-score was measured for COCCCNC(=O)[C@@]1(Sc2ccc(C)cc2)CC(=O)N(Cc2ccccc2C(F)(F)F)[C@@H]1c1ccc(CO)cc1I ?
Result: -2.75

Task: Any idea what z-score was measured for CC1CC/C=C\[C@H]2OC34C=CCN(c5ccc6ccccc6c5)C(=O)[C@H]3N(C(C)CO)C(=O)[C@@H]4C2C(=O)O1 (some centres not stated) ?
Result: 0.762

Task: Any idea what z-score was measured for COc1ccc([Si](C)(C)[C@H]2[C@H](CCO)O[C@@]3(C(=O)N(Cc4ccc(NC(=O)[C@H](C)O)cc4)c4ccccc43)[C@@H]2C)cc1 ?
Result: -6.21

Task: Any idea what z-score was measured for CN(C)C(=O)[C@@]1(Cc2ccccc2CN=[N+]=[N-])COC(c2ccc(OCCCO)cc2)=N1 ?
Result: 0.196

----------
# Tested on: Lefty1
# RUN DESCRIPTION: Lefty1 protein binding to printed compounds – biochemical, small-molecule microarray, 635/667 nm fluorescence, primary screen (AID 1139)
# RECORDED CONDITIONS: fluorescence 635/667, higher = more signal
REPORTED ENDPOINT: composite z-score
Respond using a number only.

Task: Lab note: need composite z-score with Lefty1 for entry COC(=O)[C@@]1(Cc2ccc(F)cc2)[C@H]2c3cc(C(=O)N4CCCC4)n(CCc4ccccn4)c3C[C@H]2CN1C(=O)c1ccccc1 , please look it up.
Result: -1.03

Task: Lab note: need composite z-score with Lefty1 for entry CCC(CC)C(O)C1C=CC2C(=O)N(c3ccccc3)C(=O)C2N1Nc1ccccc1F (centres undefined) , please look it up.
Result: 0.128

Task: Lab note: need composite z-score with Lefty1 for entry COc1ccc(C(O)C2C=CC3C(=O)N(C)C(=O)C3N2N(c2ccccc2)c2ccccc2)cc1 (centres undefined) , please look it up.
Result: -0.729

Task: Lab note: need composite z-score with Lefty1 for entry CC(C)NC(=O)[C@@]1(C)c2ccccc2C(=O)N(Cc2ccccc2)[C@H]1c1ccc(CO)cc1 , please look it up.
Result: -0.189
